Origin of measurements: the supplement of paper PMC5499739

The sequences listed here are annotated with their RNAcompete 7-mer binding Z-score.
- Tested on: RBM10 RRM1-ZnF (GST-tagged construct);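 further: 20 pmol protein with 1.5 nmol RNA pool for 30 min at 4°C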
- test_description: RNAcompete 7-mer binding Z-score; higher = stronger binding preference
In all, about 16,000 sequences were measured (“Z-score”: median about -0.37, highest 2% from about 3.2 on). This is one part of a sample in which the highest values are shown more often than they occur.
Form field (numeric): enter value without unit.

Recorded RNAcompete 7-mer binding Z-score, per entry:
>  <monomer_sequence>
GGGAUGC

>  <RNAcompete 7-mer binding Z-score>
3.06

$$$$
>  <monomer_sequence>
GGGAUGU

>  <RNAcompete 7-mer binding Z-score>
3.21

$$$$

Field: next sequence
Quote RNAcompete 7-mer binding Z-score reported for `GGACGGC` please.
1.19

###

- Test system: RBM10 RRM1-ZnF (GST-tagged construct);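 further: 20 pmol protein with 1.5 nmol RNA pool for 30 min at 4°C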
- test_description: RNAcompete 7-mer binding Z-score; higher = stronger binding preference
Over roughly 16,000 sequences, “Z-score” has its median near -0.37; the highest 2% begin near 3.2. Only a selection was taken, and the highest values are over-represented in it overall.
readout_type: RNAcompete 7-mer binding Z-score
Form field (numeric): enter value without unit.

Recorded RNAcompete 7-mer binding Z-score, per entry:
>  <monomer_sequence>
AAGGGCG

>  <RNAcompete 7-mer binding Z-score>
3

$$$$
>  <monomer_sequence>
AUCGGCC

>  <RNAcompete 7-mer binding Z-score>
-0.62

$$$$
>  <monomer_sequence>
AUGUGGC

>  <RNAcompete 7-mer binding Z-score>
0.586

$$$$
>  <monomer_sequence>
UGGGUUG

>  <RNAcompete 7-mer binding Z-score>
3.04

$$$$

Quote RNAcompete 7-mer binding Z-score reported for `GGGGUUG` please.
3.76

Quote RNAcompete 7-mer binding Z-score reported for `AAUGGGC` please.
2.5

Quote RNAcompete 7-mer binding Z-score reported for `UAGGGAG` please.
3.25

Quote RNAcompete 7-mer binding Z-score reported for `UAUGGGA` please.
2.85

Quote RNAcompete 7-mer binding Z-score reported for `AAUGGGA` please.
4.35

Quote RNAcompete 7-mer binding Z-score reported for `GCGAAGG` please.
2.06

###

- Test system: RBM10 RRM1-ZnF (GST-tagged construct);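 further: 20 pmol protein with 1.5 nmol RNA pool for 30 min at 4°C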
- test_description: RNAcompete 7-mer binding Z-score; higher = stronger binding preference
Whole data set: some 16,000 sequences, median “Z-score” near -0.37, cut for the highest 2% near 3.2. The sample as a whole holds a higher share of the highest values than the screen did.
The sequences listed here are annotated with their RNAcompete 7-mer binding Z-score.

>  <monomer_sequence>
CCGAAGG

>  <RNAcompete 7-mer binding Z-score>
0.179

$$$$

Field: next sequence
Quote RNAcompete 7-mer binding Z-score reported for `GAAGGAA` please.
4.56

###

- Tested on: RBM10 RRM1-ZnF (GST-tagged construct);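 further: 20 pmol protein with 1.5 nmol RNA pool for 30 min at 4°C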
- test_description: RNAcompete 7-mer binding Z-score; higher = stronger binding preference
Whole data set: some 16,000 sequences, median “Z-score” near -0.37, cut for the highest 2% near 3.2. This excerpt belongs to a sample that is enriched for the highest values.
readout_type: RNAcompete 7-mer binding Z-score
Form field (numeric): enter value without unit.

Recorded RNAcompete 7-mer binding Z-score, per entry:
>  <monomer_sequence>
AAUGGAC

>  <RNAcompete 7-mer binding Z-score>
2.03

$$$$
>  <monomer_sequence>
GCUGGGA

>  <RNAcompete 7-mer binding Z-score>
2.03

$$$$

Field: next sequence
Quote RNAcompete 7-mer binding Z-score reported for `AAAAAGG` please.
2

###

- Tested on: RBM10 RRM1-ZnF (GST-tagged construct);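 further: 20 pmol protein with 1.5 nmol RNA pool for 30 min at 4°C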
- test_description: RNAcompete 7-mer binding Z-score; higher = stronger binding preference
Whole data set: some 16,000 sequences, median “Z-score” near -0.37, cut for the highest 2% near 3.2. The sample as a whole holds a higher share of the highest values than the screen did.
I would appreciate it if you labelled entries condition met when RNAcompete 7-mer binding Z-score is 2 or higher, otherwise condition not met.

Observe how each entry below is paired with its result.
>  <monomer_sequence>
UGCGGGA

>  <label>
condition not met

$$$$
>  <monomer_sequence>
ACGAUUA

>  <label>
condition not met

$$$$
>  <monomer_sequence>
AAGGAAA

>  <label>
condition met

$$$$
>  <monomer_sequence>
CUGGGCC

>  <label>
condition not met

$$$$
>  <monomer_sequence>
GAGGGGA

>  <label>
condition met

$$$$
>  <monomer_sequence>
UGGGAGC

>  <label>
condition met

$$$$
>  <monomer_sequence>
CAGGGGA

>  <label>
condition met

$$$$
>  <monomer_sequence>
GGGUAUG

>  <label>
condition met

$$$$

Please indicate if the recorded RNAcompete 7-mer binding Z-score for `AGAAUCC` meets or exceeds 2.
condition not met

Please indicate if the recorded RNAcompete 7-mer binding Z-score for `GCCCGCC` meets or exceeds 2.
condition not met

Please indicate if the recorded RNAcompete 7-mer binding Z-score for `GAGGGGG` meets or exceeds 2.
condition met

###

- Tested on: RBM10 RRM1-ZnF (GST-tagged construct);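 further: 20 pmol protein with 1.5 nmol RNA pool for 30 min at 4°C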
- test_description: RNAcompete 7-mer binding Z-score; higher = stronger binding preference
In all, about 16,000 sequences were measured (“Z-score”: median about -0.37, highest 2% from about 3.2 on). This is one part of a sample in which the highest values are shown more often than they occur.
I would appreciate it if you labelled entries 1 when RNAcompete 7-mer binding Z-score is 2 or higher, otherwise 0.

Observe how each entry below is paired with its result.
>  <monomer_sequence>
UAAGGUG

>  <label>
1

$$$$
>  <monomer_sequence>
AAGUGGG

>  <label>
1

$$$$
>  <monomer_sequence>
UGUGGGC

>  <label>
1

$$$$
>  <monomer_sequence>
UCUAUAC

>  <label>
0

$$$$
>  <monomer_sequence>
UUGGGUG

>  <label>
1

$$$$

Please indicate if the recorded RNAcompete 7-mer binding Z-score for `CAGGGUU` meets or exceeds 2.
1

Please indicate if the recorded RNAcompete 7-mer binding Z-score for `CGCAUAC` meets or exceeds 2.
0

Please indicate if the recorded RNAcompete 7-mer binding Z-score for `AGGAGAU` meets or exceeds 2.
0

Please indicate if the recorded RNAcompete 7-mer binding Z-score for `AUCCGGU` meets or exceeds 2.
0

Please indicate if the recorded RNAcompete 7-mer binding Z-score for `GGUGGUU` meets or exceeds 2.
1

Please indicate if the recorded RNAcompete 7-mer binding Z-score for `GGUGGUC` meets or exceeds 2.
1

Please indicate if the recorded RNAcompete 7-mer binding Z-score for `ACUAUAC` meets or exceeds 2.
0

###

- Test system: RBM10 RRM1-ZnF (GST-tagged construct);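 further: 20 pmol protein with 1.5 nmol RNA pool for 30 min at 4°C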
- test_description: RNAcompete 7-mer binding Z-score; higher = stronger binding preference
Whole data set: some 16,000 sequences, median “Z-score” near -0.37, cut for the highest 2% near 3.2. Many of the other results were omitted from the sample, so the highest values are more common in it than they were.
readout_type: RNAcompete 7-mer binding Z-score

>  <monomer_sequence>
ACAUGGA

>  <system_tested>
RBM10 RRM1-ZnF (GST-tagged construct);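 further: 20 pmol protein with 1.5 nmol RNA pool for 30 min at 4°C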

>  <value_reported>
1.7

$$$$
>  <monomer_sequence>
GGGAGCC

>  <system_tested>
RBM10 RRM1-ZnF (GST-tagged construct);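 further: 20 pmol protein with 1.5 nmol RNA pool for 30 min at 4°C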

>  <value_reported>
0.917

$$$$
>  <monomer_sequence>
UACUUUC

>  <system_tested>
RBM10 RRM1-ZnF (GST-tagged construct);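 further: 20 pmol protein with 1.5 nmol RNA pool for 30 min at 4°C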

>  <value_reported>
-0.974

$$$$
>  <monomer_sequence>
CGUAGGU

>  <system_tested>
RBM10 RRM1-ZnF (GST-tagged construct);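 further: 20 pmol protein with 1.5 nmol RNA pool for 30 min at 4°C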

>  <value_reported>
0.949

$$$$
>  <monomer_sequence>
UAGAACU

>  <system_tested>
RBM10 RRM1-ZnF (GST-tagged construct);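 further: 20 pmol protein with 1.5 nmol RNA pool for 30 min at 4°C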

>  <value_reported>
-0.155

$$$$
>  <monomer_sequence>
AAACCCA

>  <system_tested>
RBM10 RRM1-ZnF (GST-tagged construct);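 further: 20 pmol protein with 1.5 nmol RNA pool for 30 min at 4°C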

>  <value_reported>
-0.701

$$$$
>  <monomer_sequence>
GGGAGCG

>  <system_tested>
RBM10 RRM1-ZnF (GST-tagged construct);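 further: 20 pmol protein with 1.5 nmol RNA pool for 30 min at 4°C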

>  <value_reported>
3.35

$$$$
>  <monomer_sequence>
GGCGCAU

>  <system_tested>
RBM10 RRM1-ZnF (GST-tagged construct);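 further: 20 pmol protein with 1.5 nmol RNA pool for 30 min at 4°C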

>  <value_reported>
0.183

$$$$

Quote RNAcompete 7-mer binding Z-score reported for `AUGGGGG` please.
4.12

Quote RNAcompete 7-mer binding Z-score reported for `GUAUGGG` please.
4.25

Quote RNAcompete 7-mer binding Z-score reported for `UGGGUGG` please.
4.14

Quote RNAcompete 7-mer binding Z-score reported for `CUCAAUA` please.
-0.802

Quote RNAcompete 7-mer binding Z-score reported for `CGGAGGU` please.
2.41

Quote RNAcompete 7-mer binding Z-score reported for `CCUACCU` please.
-0.766

###

- System: RBM10 RRM1-ZnF (GST-tagged construct);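 further: 20 pmol protein with 1.5 nmol RNA pool for 30 min at 4°C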
- test_description: RNAcompete 7-mer binding Z-score; higher = stronger binding preference
In all, about 16,000 sequences were measured (“Z-score”: median about -0.37, highest 2% from about 3.2 on). What follows is part of a selection rich in the highest values, with near analogues and random picks from the rest.
I would appreciate it if you labelled entries class 1 when RNAcompete 7-mer binding Z-score is 1 or higher, otherwise class 0.

>  <monomer_sequence>
UGGGUGA

>  <label>
class 1

$$$$
>  <monomer_sequence>
UAAUGGA

>  <label>
class 1

$$$$
>  <monomer_sequence>
CAUGAGG

>  <label>
class 1

$$$$
>  <monomer_sequence>
UAAGGAU

>  <label>
class 1

$$$$
>  <monomer_sequence>
GAUGAGU

>  <label>
class 1

$$$$
>  <monomer_sequence>
GACUCUA

>  <label>
class 0

$$$$
>  <monomer_sequence>
AACUUCC

>  <label>
class 0

$$$$
>  <monomer_sequence>
GUUGAGG

>  <label>
class 1

$$$$

Please indicate if the recorded RNAcompete 7-mer binding Z-score for `AGAAUGU` meets or exceeds 1.
class 0

Please indicate if the recorded RNAcompete 7-mer binding Z-score for `CUCGCAG` meets or exceeds 1.
class 0

Please indicate if the recorded RNAcompete 7-mer binding Z-score for `CGGGUGC` meets or exceeds 1.
class 1

Please indicate if the recorded RNAcompete 7-mer binding Z-score for `UGCUGUG` meets or exceeds 1.
class 0

Please indicate if the recorded RNAcompete 7-mer binding Z-score for `GAAUGGA` meets or exceeds 1.
class 1

Please indicate if the recorded RNAcompete 7-mer binding Z-score for `CAAUGGA` meets or exceeds 1.
class 1

Please indicate if the recorded RNAcompete 7-mer binding Z-score for `UGGGCAG` meets or exceeds 1.
class 1

Please indicate if the recorded RNAcompete 7-mer binding Z-score for `ACGGGGA` meets or exceeds 1.
class 1

Please indicate if the recorded RNAcompete 7-mer binding Z-score for `AUAGCCU` meets or exceeds 1.
class 0

Please indicate if the recorded RNAcompete 7-mer binding Z-score for `GAAGGAG` meets or exceeds 1.
class 1

Please indicate if the recorded RNAcompete 7-mer binding Z-score for `UCGGUGA` meets or exceeds 1.
class 0

Please indicate if the recorded RNAcompete 7-mer binding Z-score for `UAUGGCA` meets or exceeds 1.
class 0
